# experimental_system: Tyrosine-protein kinase ABL1 (Homo sapiens, UniProt P00519)
# Sequence (P00519 whole entry): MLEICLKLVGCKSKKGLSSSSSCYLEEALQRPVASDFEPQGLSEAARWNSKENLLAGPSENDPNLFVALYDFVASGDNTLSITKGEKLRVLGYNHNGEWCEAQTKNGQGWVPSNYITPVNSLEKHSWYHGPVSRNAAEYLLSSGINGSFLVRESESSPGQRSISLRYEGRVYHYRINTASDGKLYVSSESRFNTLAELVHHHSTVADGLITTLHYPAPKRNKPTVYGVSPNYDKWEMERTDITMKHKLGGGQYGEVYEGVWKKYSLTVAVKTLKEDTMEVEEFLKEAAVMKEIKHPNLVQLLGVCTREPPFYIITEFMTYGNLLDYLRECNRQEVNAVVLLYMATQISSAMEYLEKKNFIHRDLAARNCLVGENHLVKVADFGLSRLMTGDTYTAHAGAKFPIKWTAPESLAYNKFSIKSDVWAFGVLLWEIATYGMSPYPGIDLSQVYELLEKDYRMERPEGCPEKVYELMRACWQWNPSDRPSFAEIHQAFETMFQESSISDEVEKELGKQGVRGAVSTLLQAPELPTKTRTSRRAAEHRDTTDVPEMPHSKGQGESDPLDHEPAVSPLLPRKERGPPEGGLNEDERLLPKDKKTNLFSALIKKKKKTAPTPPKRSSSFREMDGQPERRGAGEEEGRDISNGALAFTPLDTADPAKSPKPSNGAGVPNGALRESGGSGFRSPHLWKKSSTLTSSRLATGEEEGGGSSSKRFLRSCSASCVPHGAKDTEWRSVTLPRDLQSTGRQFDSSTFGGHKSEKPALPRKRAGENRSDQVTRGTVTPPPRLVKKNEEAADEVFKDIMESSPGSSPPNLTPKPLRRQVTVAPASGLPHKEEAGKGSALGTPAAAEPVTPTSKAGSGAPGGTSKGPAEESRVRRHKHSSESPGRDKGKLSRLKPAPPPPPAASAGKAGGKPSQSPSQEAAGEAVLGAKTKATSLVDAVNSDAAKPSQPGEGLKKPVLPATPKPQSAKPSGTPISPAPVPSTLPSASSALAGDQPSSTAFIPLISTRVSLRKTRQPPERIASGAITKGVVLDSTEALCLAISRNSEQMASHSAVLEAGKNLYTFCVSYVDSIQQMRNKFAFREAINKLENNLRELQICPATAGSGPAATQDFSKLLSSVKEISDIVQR
parameter: pIC50
Note on units: pIC50 is unitless, being -log10 of a concentration expressed in mol/L.

Report value only: pIC50, Tyrosine-protein kinase ABL1 (Homo sapiens, UniProt P00519), CC(C)c1cc(CNc2nc(Nc3cc(C4CC4)[nH]n3)cc(N3CCN(C)CC3)n2)on1
8.30

###

# experimental_system: Bcr/Abl fusion protein (Homo sapiens)
# Sequence (P00519 whole entry, the tested form may be a part): as the sequence (P00519 whole entry) above
# Sequence (P11274 whole entry, further chain, the tested form may be a part): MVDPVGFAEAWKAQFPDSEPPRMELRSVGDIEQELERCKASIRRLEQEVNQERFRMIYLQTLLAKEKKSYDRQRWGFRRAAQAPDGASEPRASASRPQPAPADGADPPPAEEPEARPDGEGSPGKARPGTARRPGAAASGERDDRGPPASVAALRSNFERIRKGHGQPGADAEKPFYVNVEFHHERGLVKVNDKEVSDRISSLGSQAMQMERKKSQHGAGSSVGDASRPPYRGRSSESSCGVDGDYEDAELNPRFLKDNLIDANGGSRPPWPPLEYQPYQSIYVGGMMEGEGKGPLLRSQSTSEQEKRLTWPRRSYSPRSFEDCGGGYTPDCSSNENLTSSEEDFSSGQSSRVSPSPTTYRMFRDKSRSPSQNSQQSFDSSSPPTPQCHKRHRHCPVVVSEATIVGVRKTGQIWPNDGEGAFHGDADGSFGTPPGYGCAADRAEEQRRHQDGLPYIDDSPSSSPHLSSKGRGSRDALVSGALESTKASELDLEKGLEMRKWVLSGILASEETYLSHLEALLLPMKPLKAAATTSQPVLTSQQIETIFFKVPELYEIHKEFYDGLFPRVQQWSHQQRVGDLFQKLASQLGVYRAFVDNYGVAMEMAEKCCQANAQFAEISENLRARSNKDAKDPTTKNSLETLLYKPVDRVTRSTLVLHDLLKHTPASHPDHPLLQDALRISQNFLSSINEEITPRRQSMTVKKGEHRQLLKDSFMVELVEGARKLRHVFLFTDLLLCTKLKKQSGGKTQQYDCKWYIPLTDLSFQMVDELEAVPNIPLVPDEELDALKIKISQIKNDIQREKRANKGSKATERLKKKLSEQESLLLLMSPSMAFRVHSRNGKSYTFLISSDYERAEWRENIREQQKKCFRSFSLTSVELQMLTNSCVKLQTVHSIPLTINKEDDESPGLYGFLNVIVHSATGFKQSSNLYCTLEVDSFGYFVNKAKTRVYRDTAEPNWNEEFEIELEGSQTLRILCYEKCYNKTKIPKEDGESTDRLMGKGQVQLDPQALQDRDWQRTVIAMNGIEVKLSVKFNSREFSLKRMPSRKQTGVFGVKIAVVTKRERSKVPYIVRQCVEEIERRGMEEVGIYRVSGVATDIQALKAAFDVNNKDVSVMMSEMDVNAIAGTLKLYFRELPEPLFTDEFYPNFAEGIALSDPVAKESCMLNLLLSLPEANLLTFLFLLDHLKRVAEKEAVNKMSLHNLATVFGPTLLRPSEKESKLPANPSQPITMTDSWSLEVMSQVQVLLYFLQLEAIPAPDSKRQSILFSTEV
# assay_procedure: Inhibition of wild type BCR-ABL phosphorylation in mouse BaF3 cells incubated for 4 hrs by immunoblotting analysis
# Type: cell-based
parameter: pIC50
Friendly reminder that pIC50 comes from taking -log10 of the concentration in mol/L.

Specify reported pIC50 for the compound shown: Cc1ccc(C(=O)NNC(=O)c2c(C)cccc2Cl)cc1C#Cc1cnc2ccccc2c1
9.05

Data provenance is ChEMBL document CHEMBL5107965.
